B1: RSAD1 (parent)
chain: YCNFNKYIPRRLEEAAMQKCLVTE

# Variants of: B1
# PROCEDURE_SUMMARY: protein stability index of a GFP-peptide fusion (GPS, HEK-293T) (PSI 1-6); higher = more stable;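 further: lentivirally expressed fusions sorted by FACS into six bins by GFP to DsRed ratio, PSI derived from sequencing read proportions per bin multiplied by bin number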
# CONDITION: c terminus: a fixed tail appended
OBSERVATION_TYPE: protein stability index
Could you keep your reply to the number by itself?

Guide cases for protein stability index, answers given:
mutation_code=Y1K test_value=2.63
mutation_code=M17Q test_value=2.57
mutation_code=N3F test_value=2.4

## Input Indicate the recorded protein stability index value for this variant: L12E
## Output 2.46

## Input Please indicate protein stability index recorded for N5Q
## Output 2.18

## Input Give the value of protein stability index reported for the following: E14M
## Output 3.14

## Input Report measured protein stability index; entry is R11L
## Output 2.57

## Input Provide one value: measured protein stability index of K6P
## Output 2.21
